test system: Clostridioides difficile; experiment: Antibacterial activity against Clostridium difficile ATCC 700057 incubated for 2 to 4 hrs in pre-reduced brucella broth supplemented with haemin/vitamin K and further incubation in anaerobic condition for 48 hrs; format: functional

smiles.code	MIC
CN[C@H](CC(C)C)C(=O)N[C@H]1C(=O)N[C@@H](CC(N)=O)C(=O)N[C@H]2C(=O)N[C@H]3C(=O)N[C@H](C(=O)N[C@H](C(=O)O)c4cc(O)cc(O)c4-c4cc3ccc4O)[C@H](O)c3ccc(c(Cl)c3)Oc3cc2cc(c3O[C@@H]2O[C@H](CO)[C@@H](O)[C@H](O)[C@H]2O[C@H]2C[C@](C)(N)[C@H](O)[C@H](C)O2)Oc2ccc(cc2Cl)[C@H]1O	0.5 µg/mL
CC(C)CCOc1ccccc1-c1ccccc1OCc1cn([C@H](CCCNC(=N)N)C(=O)N[C@H](CCCCN)Cn2cc(Cc3ccccc3)nn2)nn1.Cl.Cl	32 µg/mL
CC(C)CCOc1ccc2ccccc2c1-c1c(OCc2cn(C[C@@H](CCCCN)NC(=O)[C@@H](CCCNC(=N)N)NC(=O)CCc3ccccc3)nn2)ccc2ccccc12.Cl.Cl	8 µg/mL
CC(C)CCOc1ccc2ccccc2c1-c1c(OCc2cn([C@H](CCCNC(=N)N)C(=O)NCc3ccccc3)nn2)ccc2ccccc12.Cl	16 µg/mL
CC(C)CCOc1ccc2ccccc2c1-c1c(OCC(=O)N[C@H](CCCNC(=N)N)C(=O)NCCc2ccccc2)ccc2ccccc12.Cl	32 µg/mL

* * *

system: Escherichia coli; assay: Growth inhibition of Escherichia coli ATCC 25922 incubated for 18 hrs; assay type: organism-based
quantity: MIC

smiles.code	result
CC(C)CCOc1ccc2ccccc2c1-c1c(OCc2cn([C@H](CCCCN)C(=O)N[C@H](CCCNC(=N)N)C(=O)N3CCCCC3)nn2)ccc2ccccc12.Cl.Cl	32 µg/mL
CC(C)CCOc1ccccc1-c1ccccc1OCc1cn([C@H](CCCNC(=N)N)C(=O)NCc2ccccc2)nn1.Cl	> 32 µg/mL
CC(C)CCOc1ccc2ccccc2c1-c1c(OCC(=O)N[C@H](CCCNC(=N)N)C(=O)NCCc2ccccc2)ccc2ccccc12.Cl	> 32 µg/mL
CC(C)CCOc1ccc2ccccc2c1-c1c(OCc2cn([C@H](CCCNC(=N)N)C(=O)NCc3ccccc3)nn2)ccc2ccccc12.Cl	> 32 µg/mL
CC(C)CCOc1ccccc1-c1ccccc1OCc1cn([C@H](CCCCN)C(=O)NCC2CCCCC2)nn1.Cl	> 32 µg/mL
CC(C)CCOc1ccccc1-c1ccccc1OCc1cn([C@H](CCCCN)C(=O)NCCc2ccc(F)cc2)nn1.Cl	> 32 µg/mL
CC(C)CCOc1ccc2ccccc2c1-c1c(OCc2cn([C@H](CCCCN)C(=O)N[C@H](CCCNC(=N)N)Cn3cc(CC4CCCCC4)nn3)nn2)ccc2ccccc12.Cl.Cl	> 32 µg/mL
CC(C)CCOc1ccccc1-c1ccccc1OCc1cn([C@H](CCCNC(=N)N)C(=O)Nc2ccccc2)nn1.Cl	> 32 µg/mL
CC(C)CCOc1ccccc1-c1ccccc1OCc1cn([C@H](CCCNC(=N)N)C(=O)NC2CC2)nn1.Cl	> 32 µg/mL
CC(C)CCOc1ccccc1-c1ccccc1OCc1cn([C@H](CCCNC(=N)N)C(=O)N[C@H](CCCCN)Cn2cc(Cc3ccccc3)nn2)nn1.Cl.Cl	> 32 µg/mL
CC(C)CCOc1ccccc1-c1ccccc1OCc1cn([C@H](CCCCN)C(=O)N[C@H](CCCNC(=N)N)Cn2cc(CC3CCCCC3)nn2)nn1.Cl.Cl	8 µg/mL
CC(C)CCOc1ccc2ccccc2c1-c1c(OCc2cn([C@H](CCCCN)C(=O)N[C@H](CCCNC(=N)N)C(=O)NCCc3ccccc3)nn2)ccc2ccccc12.Cl.Cl	> 32 µg/mL
CC(C)CCOc1ccc2ccccc2c1-c1c(OCc2cn([C@H](CCCNC(=N)N)C(=O)NCCc3ccccc3)nn2)ccc2ccccc12.Cl	> 32 µg/mL
CC(C)CCOc1ccc2ccccc2c1-c1c(OCc2cn([C@H](CCCNC(=N)N)C(=O)N[C@H](CCCCN)Cn3cc(CC4CCCCC4)nn3)nn2)ccc2ccccc12.Cl.Cl	> 32 µg/mL
CC(C)CCOc1ccccc1-c1ccccc1OCc1cn([C@H](CCCNC(=N)N)C(=O)N[C@H](CCCCN)Cn2cc(C3CCCCC3)nn2)nn1.Cl.Cl	16 µg/mL
CC(C)CCOc1ccccc1-c1ccccc1OCc1cn([C@H](CCCNC(=N)N)C(=O)NCCc2ccccc2)nn1.Cl	> 32 µg/mL
CC(C)CCOc1ccccc1-c1ccccc1OCc1cn([C@H](CCCNC(=N)N)C(=O)NCc2ccc(C(F)(F)F)cc2)nn1.Cl	> 32 µg/mL
CC(C)CCOc1ccccc1-c1ccccc1OCc1cn([C@H](CCCCN)C(=O)N[C@H](CCCNC(=N)N)Cn2cc(C3CCCCC3)nn2)nn1.Cl.Cl	8 µg/mL
CC(C)CCOc1ccccc1-c1ccccc1OCc1cn([C@H](CCCNC(=N)N)C(=O)NCC2CCCCC2)nn1.Cl	> 32 µg/mL
CC(C)CCOc1ccccc1-c1ccccc1OCc1cn([C@H](CCCNC(=N)N)C(=O)NCc2cc(F)cc(F)c2)nn1.Cl	> 32 µg/mL
